Test: Plasma pharmacokinetics after a single subcutaneous dose in healthy volunteers
Type: in vivo, human
Settings: male, human, plasma, sc, 30 ug
*1 amine or outer side, *2 acyl side, *3 side chain or, on linkers, in order; H or OH if unused. Where a SMILES comes first, the peptide text is derived from it. Side-chain parts run from the residue outwards. [ ]: non-standard residue; d: D form. The star is where a group is joined. Ethylenediamine = C(CN[*:2])N[*:1]; Hyp = O=C(O)[C@@H]1C[C@@H](O)CN1; Phg = N[C@H](C(=O)O)c1ccccc1; CO = O=C([*:1])[*:2]; Bn = c1ccc(C*)cc1
Observed property: half-life (h)
Quick reminder: number only, in h, skip the unit.

[in] Give the measured half-life of NCCCC[C@@H]1NC(=O)[C@@H](Cc2c[nH]c3ccccc23)NC(=O)[C@H](c2ccccc2)NC(=O)[C@@H]2C[C@@H](OC(=O)NCCN)CN2C(=O)[C@H](Cc2ccccc2)NC(=O)[C@H](Cc2ccc(OCc3ccccc3)cc2)NC1=O [Pasireotide] (cyclo([Hyp]([CO-Ethylenediamine])[Phg][dW]KY(Bn)F)) .
[out] 7.4

* * *

Test: Plasma pharmacokinetics after a single subcutaneous dose in healthy volunteers
Type: in vivo, human
Settings: male, human, plasma, sc, 300 ug
*1 amine or outer side, *2 acyl side, *3 side chain or, on linkers, in order; H or OH if unused. Where a SMILES comes first, the peptide text is derived from it. Side-chain parts run from the residue outwards. [ ]: non-standard residue; d: D form. The star is where a group is joined. Ethylenediamine = C(CN[*:2])N[*:1]; Hyp = O=C(O)[C@@H]1C[C@@H](O)CN1; Phg = N[C@H](C(=O)O)c1ccccc1; CO = O=C([*:1])[*:2]; Bn = c1ccc(C*)cc1
Observed property: Vd/F

[in] // lookup Vd/F for NCCCC[C@@H]1NC(=O)[C@@H](Cc2c[nH]c3ccccc23)NC(=O)[C@H](c2ccccc2)NC(=O)[C@@H]2C[C@@H](OC(=O)NCCN)CN2C(=O)[C@H](Cc2ccccc2)NC(=O)[C@H](Cc2ccc(OCc3ccccc3)cc2)NC1=O [Pasireotide] (cyclo([Hyp]([CO-Ethylenediamine])[Phg][dW]KY(Bn)F))
[out] 180 L

* * *

Test: Plasma pharmacokinetics after a single subcutaneous dose in healthy volunteers
Format: in vivo, human
Settings: male, human, plasma, sc, 200 ug
*1 amine or outer side, *2 acyl side, *3 side chain or, on linkers, in order; H or OH if unused. Where a SMILES comes first, the peptide text is derived from it. Side-chain parts run from the residue outwards. [ ]: non-standard residue; d: D form. The star is where a group is joined. Ethylenediamine = C(CN[*:2])N[*:1]; Hyp = O=C(O)[C@@H]1C[C@@H](O)CN1; Phg = N[C@H](C(=O)O)c1ccccc1; CO = O=C([*:1])[*:2]; Bn = c1ccc(C*)cc1
Observed property: Cmax (ng/mL)
Please state the figure in ng/mL; there is no need to write the unit.

[in] Sample NCCCC[C@@H]1NC(=O)[C@@H](Cc2c[nH]c3ccccc23)NC(=O)[C@H](c2ccccc2)NC(=O)[C@@H]2C[C@@H](OC(=O)NCCN)CN2C(=O)[C@H](Cc2ccccc2)NC(=O)[C@H](Cc2ccc(OCc3ccccc3)cc2)NC1=O [Pasireotide] (cyclo([Hyp]([CO-Ethylenediamine])[Phg][dW]KY(Bn)F)) — what was its Cmax?
[out] 3.73

* * *

Experiment: Plasma pharmacokinetics after a single subcutaneous dose in healthy volunteers
Assay type: in vivo, human
Details: male, human, plasma, sc, 30 ug
*1 amine or outer side, *2 acyl side, *3 side chain or, on linkers, in order; H or OH if unused. Where a SMILES comes first, the peptide text is derived from it. Side-chain parts run from the residue outwards. [ ]: non-standard residue; d: D form. The star is where a group is joined. Ethylenediamine = C(CN[*:2])N[*:1]; Hyp = O=C(O)[C@@H]1C[C@@H](O)CN1; Phg = N[C@H](C(=O)O)c1ccccc1; CO = O=C([*:1])[*:2]; Bn = c1ccc(C*)cc1
Observed property: Vd/F (L)
Give the value in L but do not write L after it.

[in] # query: Vd/F of entry NCCCC[C@@H]1NC(=O)[C@@H](Cc2c[nH]c3ccccc23)NC(=O)[C@H](c2ccccc2)NC(=O)[C@@H]2C[C@@H](OC(=O)NCCN)CN2C(=O)[C@H](Cc2ccccc2)NC(=O)[C@H](Cc2ccc(OCc3ccccc3)cc2)NC1=O [Pasireotide] (cyclo([Hyp]([CO-Ethylenediamine])[Phg][dW]KY(Bn)F))
[out] 105

* * *

Test: Plasma pharmacokinetics after a single subcutaneous dose in healthy volunteers
Format: in vivo, human
Details: male, human, plasma, sc, 300 ug
*1 amine or outer side, *2 acyl side, *3 side chain or, on linkers, in order; H or OH if unused. Where a SMILES comes first, the peptide text is derived from it. Side-chain parts run from the residue outwards. [ ]: non-standard residue; d: D form. The star is where a group is joined. Ethylenediamine = C(CN[*:2])N[*:1]; Hyp = O=C(O)[C@@H]1C[C@@H](O)CN1; Phg = N[C@H](C(=O)O)c1ccccc1; CO = O=C([*:1])[*:2]; Bn = c1ccc(C*)cc1
Observed property: Tmax (min)
Could you give me the number in min? Just the number is fine.

[in] Record request: Tmax value, item NCCCC[C@@H]1NC(=O)[C@@H](Cc2c[nH]c3ccccc23)NC(=O)[C@H](c2ccccc2)NC(=O)[C@@H]2C[C@@H](OC(=O)NCCN)CN2C(=O)[C@H](Cc2ccccc2)NC(=O)[C@H](Cc2ccc(OCc3ccccc3)cc2)NC1=O [Pasireotide] (cyclo([Hyp]([CO-Ethylenediamine])[Phg][dW]KY(Bn)F))
[out] 22.8

* * *

Experiment: Plasma pharmacokinetics after a single subcutaneous dose in healthy volunteers
Format: in vivo, human
Settings: male, human, plasma, sc, 1200 ug
*1 amine or outer side, *2 acyl side, *3 side chain or, on linkers, in order; H or OH if unused. Where a SMILES comes first, the peptide text is derived from it. Side-chain parts run from the residue outwards. [ ]: non-standard residue; d: D form. The star is where a group is joined. Ethylenediamine = C(CN[*:2])N[*:1]; Hyp = O=C(O)[C@@H]1C[C@@H](O)CN1; Phg = N[C@H](C(=O)O)c1ccccc1; CO = O=C([*:1])[*:2]; Bn = c1ccc(C*)cc1
Observed property: Vd/F

[in] Need Vd/F, item NCCCC[C@@H]1NC(=O)[C@@H](Cc2c[nH]c3ccccc23)NC(=O)[C@H](c2ccccc2)NC(=O)[C@@H]2C[C@@H](OC(=O)NCCN)CN2C(=O)[C@H](Cc2ccccc2)NC(=O)[C@H](Cc2ccc(OCc3ccccc3)cc2)NC1=O [Pasireotide] (cyclo([Hyp]([CO-Ethylenediamine])[Phg][dW]KY(Bn)F))
[out] 1190 L

* * *

Assay: Plasma pharmacokinetics after a single subcutaneous dose in healthy volunteers
Type: in vivo, human
Conditions: male, human, plasma, sc, 600 ug
*1 amine or outer side, *2 acyl side, *3 side chain or, on linkers, in order; H or OH if unused. Where a SMILES comes first, the peptide text is derived from it. Side-chain parts run from the residue outwards. [ ]: non-standard residue; d: D form. The star is where a group is joined. Ethylenediamine = C(CN[*:2])N[*:1]; Hyp = O=C(O)[C@@H]1C[C@@H](O)CN1; Phg = N[C@H](C(=O)O)c1ccccc1; CO = O=C([*:1])[*:2]; Bn = c1ccc(C*)cc1
Observed property: Vd/F

[in] Fill in: Vd/F of NCCCC[C@@H]1NC(=O)[C@@H](Cc2c[nH]c3ccccc23)NC(=O)[C@H](c2ccccc2)NC(=O)[C@@H]2C[C@@H](OC(=O)NCCN)CN2C(=O)[C@H](Cc2ccccc2)NC(=O)[C@H](Cc2ccc(OCc3ccccc3)cc2)NC1=O [Pasireotide] (cyclo([Hyp]([CO-Ethylenediamine])[Phg][dW]KY(Bn)F)) is ___
[out] 464 L

* * *

Assay: Plasma pharmacokinetics after a single subcutaneous dose in healthy volunteers
Assay type: in vivo, human
Conditions: male, human, plasma, sc, 2.5 ug
*1 amine or outer side, *2 acyl side, *3 side chain or, on linkers, in order; H or OH if unused. Where a SMILES comes first, the peptide text is derived from it. Side-chain parts run from the residue outwards. [ ]: non-standard residue; d: D form. The star is where a group is joined. Ethylenediamine = C(CN[*:2])N[*:1]; Hyp = O=C(O)[C@@H]1C[C@@H](O)CN1; Phg = N[C@H](C(=O)O)c1ccccc1; CO = O=C([*:1])[*:2]; Bn = c1ccc(C*)cc1
Observed property: AUC(0-t)

[in] Entry NCCCC[C@@H]1NC(=O)[C@@H](Cc2c[nH]c3ccccc23)NC(=O)[C@H](c2ccccc2)NC(=O)[C@@H]2C[C@@H](OC(=O)NCCN)CN2C(=O)[C@H](Cc2ccccc2)NC(=O)[C@H](Cc2ccc(OCc3ccccc3)cc2)NC1=O [Pasireotide] (cyclo([Hyp]([CO-Ethylenediamine])[Phg][dW]KY(Bn)F)) : reported AUC(0-t) = ?
[out] 0.11 ng·h/mL
